tested on: SR; experiment: Growth inhibition of human SR cells assessed as cell growth at 10 uM by sulforhodamine B assay; type: functional; details: read-out: Activity
Catalogue of compounds with associated growth at 10 µM

{"columns": ["compound", "assay_system", "growth at 10 µM [%]"],
 "data": [
  ["CC1(C)C[C@@H](O)[C@]2(C(=O)O)CC[C@]3(C)C(=CC[C@@H]4[C@@]5(C)CC[C@H](O)C(C)(C)[C@@H]5CC[C@]43C)[C@@H]2C1", "SR", 78],
  ["C/C=C(/C)C(=O)O[C@@H]1CC(C)(C)C[C@H]2C3=CC[C@@H]4[C@@]5(C)CCC(=O)C(C)(C)[C@@H]5CC[C@@]4(C)[C@]3(C)CC[C@@]12C(=O)O [LANTADENE A]", "SR", 69.5],
  ["CC1(C)C[C@@H](O)[C@]2(C(=O)O)CC[C@]3(C)C(=CC[C@@H]4[C@@]5(C)C/C(=C\\C=C\\c6ccccc6)C(=O)C(C)(C)[C@@H]5CC[C@]43C)[C@@H]2C1", "SR", 62.6],
  ["C/C=C(/C)C(=O)O[C@@H]1CC(C)(C)C[C@H]2C3=CC[C@@H]4[C@@]5(C)CC[C@H](O)C(C)(C)[C@@H]5CC[C@@]4(C)[C@]3(C)CC[C@@]12C(=O)O [Reduced Lantadene A]", "SR", 61.9],
  ["CC(C)=CC(=O)O[C@@H]1CC(C)(C)C[C@H]2C3=CC[C@@H]4[C@@]5(C)CCC(=O)C(C)(C)[C@@H]5CC[C@@]4(C)[C@]3(C)CC[C@@]12C(=O)O", "SR", 52.1]
]}
